# experimentalSystem: BaF3 EML4-ALK (Homo sapiens, UniProt Q9UM73)
# Construct: The EML4-ALK gene (variant 1) was synthesized at GenScript and cloned into pCDH-CMV-MCS-EF1-Puro plasmid (System Biosciences, Inc); fused on or other part: Q9HC35 (Echinoderm microtubule-associated protein-like 4)
# Sequence (Q9UM73 whole entry, change not shown, the tested form may be a part): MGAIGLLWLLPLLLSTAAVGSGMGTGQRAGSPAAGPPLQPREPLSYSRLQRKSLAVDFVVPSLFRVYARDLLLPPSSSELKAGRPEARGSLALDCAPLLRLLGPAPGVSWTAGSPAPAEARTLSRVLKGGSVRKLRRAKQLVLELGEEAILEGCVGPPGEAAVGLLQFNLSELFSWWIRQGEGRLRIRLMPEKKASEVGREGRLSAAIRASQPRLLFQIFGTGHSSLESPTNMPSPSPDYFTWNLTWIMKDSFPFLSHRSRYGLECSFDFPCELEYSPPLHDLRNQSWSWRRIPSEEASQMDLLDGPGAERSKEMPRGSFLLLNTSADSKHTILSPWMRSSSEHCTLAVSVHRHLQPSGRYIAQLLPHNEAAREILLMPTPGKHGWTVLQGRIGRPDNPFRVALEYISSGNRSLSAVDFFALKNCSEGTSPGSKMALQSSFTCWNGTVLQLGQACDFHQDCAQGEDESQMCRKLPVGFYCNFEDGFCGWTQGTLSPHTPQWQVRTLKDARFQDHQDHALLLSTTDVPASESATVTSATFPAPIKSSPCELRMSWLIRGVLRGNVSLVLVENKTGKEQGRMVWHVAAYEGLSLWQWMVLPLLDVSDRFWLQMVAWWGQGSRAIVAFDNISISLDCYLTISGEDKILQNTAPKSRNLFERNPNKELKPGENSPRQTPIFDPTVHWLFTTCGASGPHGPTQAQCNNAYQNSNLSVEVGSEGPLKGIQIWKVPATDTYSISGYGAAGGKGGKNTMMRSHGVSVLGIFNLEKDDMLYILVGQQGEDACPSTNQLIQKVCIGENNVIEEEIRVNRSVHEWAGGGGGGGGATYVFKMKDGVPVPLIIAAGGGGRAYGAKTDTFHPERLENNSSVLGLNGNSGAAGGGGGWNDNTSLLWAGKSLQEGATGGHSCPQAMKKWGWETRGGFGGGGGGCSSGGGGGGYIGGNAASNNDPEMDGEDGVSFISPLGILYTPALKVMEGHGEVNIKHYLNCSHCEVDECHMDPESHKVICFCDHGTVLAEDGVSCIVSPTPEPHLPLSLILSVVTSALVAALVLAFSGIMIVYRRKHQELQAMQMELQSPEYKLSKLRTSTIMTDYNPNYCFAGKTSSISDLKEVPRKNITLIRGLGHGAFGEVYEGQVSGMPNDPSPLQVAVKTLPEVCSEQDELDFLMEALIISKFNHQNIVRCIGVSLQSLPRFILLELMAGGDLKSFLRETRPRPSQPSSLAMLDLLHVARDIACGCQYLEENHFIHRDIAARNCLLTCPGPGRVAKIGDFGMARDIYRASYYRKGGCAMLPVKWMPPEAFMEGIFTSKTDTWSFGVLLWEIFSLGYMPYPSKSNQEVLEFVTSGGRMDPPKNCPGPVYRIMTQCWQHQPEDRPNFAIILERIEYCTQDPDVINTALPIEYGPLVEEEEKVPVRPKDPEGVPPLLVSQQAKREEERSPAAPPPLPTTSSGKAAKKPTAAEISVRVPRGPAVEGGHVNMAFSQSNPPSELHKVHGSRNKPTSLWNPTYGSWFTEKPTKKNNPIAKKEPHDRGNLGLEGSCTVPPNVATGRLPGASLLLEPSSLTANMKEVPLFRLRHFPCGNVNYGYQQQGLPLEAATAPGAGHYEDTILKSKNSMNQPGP
# methodSummary: Cell proliferation assay (CellTiter-Glo, 72 hours)
# Assay type: cell-based
# runParameters: anti-cell proliferation
# Experimental: The EML4-ALK gene (variant 1) was synthesized at GenScript and cloned into pCDH-CMV-MCS-EF1-Puro plasmid (System Biosciences, Inc). Ba/F3-EML4-ALK wild type were generated by transducing Ba/F3 cells with lentivirus containing EML4-ALK wide type. Stable cell lines were selected by puromycin treatment, followed by IL-3 withdrawal. Briefly, 5×10^6 Ba/F3 cells were transduced with lentivirus supernatant in the presence of 8 μg/mL protamine sulfate. […]
measurementLabel: GI50 (µM)

compound: O=C1NC2(CCCC2)COc2ncc(F)cc2CN2c3nc4c1cnn4cc3O[C@H]1CCC[C@H]12 [Compound 26]
reported: 1.41
--
compound: C[C@H]1CNC(=O)c2cnn3cc4c(nc23)N(Cc2cc(F)cnc2O1)[C@@H]1CCCC[C@@H]1O4 [Compound 12]
reported: 2.71
--
compound: C[C@H]1CNC(=O)c2cnn3cc4c(nc23)N(Cc2cc(F)cnc2O1)[C@@H]1CC[C@@H]1O4 [Compound 8]
reported: 4

(1) O=C1NCC(F)(F)COc2ncc(F)cc2CN2c3nc4c1cnn4cc3O[C@H]1CCC[C@H]12 [Compound 40]
(2) O=C1NC2(CC2)COc2ncc(F)cc2CN2c3nc4c1cnn4cc3O[C@H]1CCC[C@H]12 [Compound 18]
(3) C[C@@H]1COc2ncc(F)cc2CN2c3nc4c(cnn4cc3O[C@H]3CCCC[C@H]32)C(=O)N1 [Compound 13]
(4) O=C1N[C@H](C2CC2)COc2ncc(F)cc2CN2c3nc4c1cnn4cc3O[C@H]1CCC[C@H]12 [Compound 14]
(5) C[C@H]1CNC(=O)c2cnn3cc4c(nc23)N(Cc2cc(F)ccc2O1)[C@@H]1CCC[C@@H]1O4 [Compound 1]
Task item: Your job: order these 5 records by GI50, ascending. As an answer, provide the labels arranged in the order called for.
Reply: 2, 5, 4, 1, 3

###

# experimentalSystem: RET (S904F) (Homo sapiens, UniProt P07949, S904F)
# Construct: purchased Reaction Biology Corporation (assay run at the CRO)
# Sequence (P07949 29-1114 S904F): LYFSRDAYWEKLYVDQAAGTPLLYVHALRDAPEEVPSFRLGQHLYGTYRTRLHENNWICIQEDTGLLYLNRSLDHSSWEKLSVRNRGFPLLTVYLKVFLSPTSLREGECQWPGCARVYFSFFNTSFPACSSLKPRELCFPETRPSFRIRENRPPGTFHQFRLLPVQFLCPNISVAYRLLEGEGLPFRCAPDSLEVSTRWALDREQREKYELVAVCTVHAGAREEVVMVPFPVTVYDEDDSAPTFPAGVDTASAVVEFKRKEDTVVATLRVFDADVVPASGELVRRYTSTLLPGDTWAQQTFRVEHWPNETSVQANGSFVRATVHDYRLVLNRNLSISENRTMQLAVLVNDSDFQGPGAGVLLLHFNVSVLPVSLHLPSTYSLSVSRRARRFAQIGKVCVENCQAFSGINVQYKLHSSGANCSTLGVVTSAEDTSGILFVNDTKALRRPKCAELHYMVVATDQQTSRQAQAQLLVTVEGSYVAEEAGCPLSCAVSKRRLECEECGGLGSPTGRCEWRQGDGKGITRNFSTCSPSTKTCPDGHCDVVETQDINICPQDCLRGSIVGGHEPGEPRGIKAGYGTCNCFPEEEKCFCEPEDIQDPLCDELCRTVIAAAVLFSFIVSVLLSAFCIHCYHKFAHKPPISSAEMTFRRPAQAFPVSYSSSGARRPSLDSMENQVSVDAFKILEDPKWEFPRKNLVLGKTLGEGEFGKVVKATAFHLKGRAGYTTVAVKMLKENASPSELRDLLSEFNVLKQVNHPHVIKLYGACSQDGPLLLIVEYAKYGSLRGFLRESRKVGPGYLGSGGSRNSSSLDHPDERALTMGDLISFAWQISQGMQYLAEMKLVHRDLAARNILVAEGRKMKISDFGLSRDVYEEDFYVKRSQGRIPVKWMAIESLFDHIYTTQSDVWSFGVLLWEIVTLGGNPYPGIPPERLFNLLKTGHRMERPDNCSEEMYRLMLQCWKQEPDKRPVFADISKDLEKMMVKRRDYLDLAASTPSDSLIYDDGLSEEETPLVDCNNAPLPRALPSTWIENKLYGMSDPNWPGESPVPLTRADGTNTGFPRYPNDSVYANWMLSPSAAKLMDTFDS
# methodSummary: Biochemical kinase assay (Reaction Biology, 33P ATP)
# runParameters: 10 μM ATP
# Protocol: The biochemical kinase assay was performed at Reaction Biology Corporation (www.reactionbiology.com, Malvern, Pa.) following the procedures described in the reference (Anastassiadis T, et al Nat Biotechnol. 2011, 29, 1039). Specific kinase/substrate pairs along with required cofactors were prepared in reaction buffer; 20 mM Hepes pH 7.5, 10 mM MgCl2, 1 mM EGTA, 0.02% Brij35, 0.02 mg/ml BSA, 0.1 mM Na3VO4, 2 mM DTIT, 1% DMSO. […]
measurementLabel: IC50 (nM)

(P) C[C@H]1CNC(=O)c2cnn3cc4c(nc23)N(Cc2cc(F)cnc2O1)[C@@H]1CCC[C@@H]1O4 [Compound 5]
(Q) C[C@H]1CNC(=O)c2cnn3cc4c(nc23)N(Cc2cc(F)ccc2O1)[C@@H]1CCC[C@@H]1O4 [Compound 1]
Task item: Decide: P or Q , by lowest recorded IC50. Select an item and report its label.
Reply: Q

###

# experimentalSystem: BaF3 KIF5B-RET (Homo sapiens)
# Construct: fused on or other part: P33176 (Kinesin-1 heavy chain)
# Sequence (P07949 whole entry, change not shown, the tested form may be a part): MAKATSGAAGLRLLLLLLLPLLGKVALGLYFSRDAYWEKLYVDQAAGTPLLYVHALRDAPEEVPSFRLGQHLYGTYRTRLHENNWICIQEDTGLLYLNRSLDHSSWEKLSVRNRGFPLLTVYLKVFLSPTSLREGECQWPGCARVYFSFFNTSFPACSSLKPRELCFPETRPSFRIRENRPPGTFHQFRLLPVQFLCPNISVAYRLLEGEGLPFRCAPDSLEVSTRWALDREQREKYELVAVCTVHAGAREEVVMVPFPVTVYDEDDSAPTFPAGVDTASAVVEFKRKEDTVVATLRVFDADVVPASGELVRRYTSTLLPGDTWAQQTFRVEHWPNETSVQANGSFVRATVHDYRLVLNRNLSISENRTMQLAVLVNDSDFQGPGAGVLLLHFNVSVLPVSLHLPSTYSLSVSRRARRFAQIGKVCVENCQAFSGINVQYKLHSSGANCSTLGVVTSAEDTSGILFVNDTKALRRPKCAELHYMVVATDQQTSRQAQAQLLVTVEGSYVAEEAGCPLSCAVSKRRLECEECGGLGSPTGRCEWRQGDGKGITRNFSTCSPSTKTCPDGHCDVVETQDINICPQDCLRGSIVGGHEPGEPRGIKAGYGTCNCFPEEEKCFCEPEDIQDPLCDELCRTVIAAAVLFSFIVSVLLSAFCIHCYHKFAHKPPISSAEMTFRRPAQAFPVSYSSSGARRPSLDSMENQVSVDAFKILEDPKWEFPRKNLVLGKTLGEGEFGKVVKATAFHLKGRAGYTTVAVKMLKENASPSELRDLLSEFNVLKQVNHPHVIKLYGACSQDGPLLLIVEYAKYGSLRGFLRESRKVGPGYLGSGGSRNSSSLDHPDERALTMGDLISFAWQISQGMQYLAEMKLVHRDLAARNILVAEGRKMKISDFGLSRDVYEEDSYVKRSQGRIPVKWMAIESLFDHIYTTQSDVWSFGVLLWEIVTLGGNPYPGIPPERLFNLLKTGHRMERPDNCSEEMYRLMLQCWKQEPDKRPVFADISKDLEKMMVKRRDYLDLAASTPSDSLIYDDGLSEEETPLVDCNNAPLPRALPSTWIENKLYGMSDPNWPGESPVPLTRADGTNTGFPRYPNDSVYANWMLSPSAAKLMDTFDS
# methodSummary: Cell proliferation assay (CellTiter-Glo, 72 hours)
# Assay type: cell-based
# runParameters: anti-cell proliferation, read-out: BaF3 KIF5B-RET IC50
measurementLabel: GI50 (nM)

(1) O=C1N[C@H]2CC[C@H](C2)Oc2ncc(F)cc2CN2c3nc4c1cnn4cc3O[C@H]1CCC[C@H]12
(2) C[C@H]1CNC(=O)c2cnn3cc4c(nc23)N(Cc2cc(F)ccc2O1)[C@@H]1CCC[C@@H]1O4
Task item: Of 1 and 2 , which one carries the higher reported GI50? Refer to your chosen entry by its label in the reply.
Reply: 1

(a) CC(=O)N1C[C@@H]2Oc3cn4ncc5c4nc3N(Cc3cc(F)cnc3O[C@@H](C)CNC5=O)[C@@H]2C1
(b) C[C@H]1CCOc2ncc(F)cc2CN2c3nc4c(cnn4cc3O[C@H]3CCC[C@H]32)C(=O)N1
Task item: Thinking about recorded GI50 values, which is higher, a or b ? Answer by stating the label of the chosen item.
Reply: a

###

# experimentalSystem: RET (Homo sapiens, UniProt P07949, C634W)
# methodSummary: Immunoblotting for cellular RET phosphorylation in TT cells
# runParameters: 4 hours treatment, read-out: suppression of RET autophosphorylation IC50
measurementLabel: IC50

Task item: For RET (Homo sapiens, UniProt P07949, C634W), provide IC50 of "C[C@H]1CNC(=O)c2cnn3cc4c(nc23)N(Cc2cc(F)cnc2O1)[C@@H]1CCC[C@@H]1O4" please.
Reply: ~0.3 nM

###

# experimentalSystem: RET (Homo sapiens, UniProt P07949)
# Construct: purchased Reaction Biology Corporation (assay run at the CRO)
# Sequence (P07949 29-1114): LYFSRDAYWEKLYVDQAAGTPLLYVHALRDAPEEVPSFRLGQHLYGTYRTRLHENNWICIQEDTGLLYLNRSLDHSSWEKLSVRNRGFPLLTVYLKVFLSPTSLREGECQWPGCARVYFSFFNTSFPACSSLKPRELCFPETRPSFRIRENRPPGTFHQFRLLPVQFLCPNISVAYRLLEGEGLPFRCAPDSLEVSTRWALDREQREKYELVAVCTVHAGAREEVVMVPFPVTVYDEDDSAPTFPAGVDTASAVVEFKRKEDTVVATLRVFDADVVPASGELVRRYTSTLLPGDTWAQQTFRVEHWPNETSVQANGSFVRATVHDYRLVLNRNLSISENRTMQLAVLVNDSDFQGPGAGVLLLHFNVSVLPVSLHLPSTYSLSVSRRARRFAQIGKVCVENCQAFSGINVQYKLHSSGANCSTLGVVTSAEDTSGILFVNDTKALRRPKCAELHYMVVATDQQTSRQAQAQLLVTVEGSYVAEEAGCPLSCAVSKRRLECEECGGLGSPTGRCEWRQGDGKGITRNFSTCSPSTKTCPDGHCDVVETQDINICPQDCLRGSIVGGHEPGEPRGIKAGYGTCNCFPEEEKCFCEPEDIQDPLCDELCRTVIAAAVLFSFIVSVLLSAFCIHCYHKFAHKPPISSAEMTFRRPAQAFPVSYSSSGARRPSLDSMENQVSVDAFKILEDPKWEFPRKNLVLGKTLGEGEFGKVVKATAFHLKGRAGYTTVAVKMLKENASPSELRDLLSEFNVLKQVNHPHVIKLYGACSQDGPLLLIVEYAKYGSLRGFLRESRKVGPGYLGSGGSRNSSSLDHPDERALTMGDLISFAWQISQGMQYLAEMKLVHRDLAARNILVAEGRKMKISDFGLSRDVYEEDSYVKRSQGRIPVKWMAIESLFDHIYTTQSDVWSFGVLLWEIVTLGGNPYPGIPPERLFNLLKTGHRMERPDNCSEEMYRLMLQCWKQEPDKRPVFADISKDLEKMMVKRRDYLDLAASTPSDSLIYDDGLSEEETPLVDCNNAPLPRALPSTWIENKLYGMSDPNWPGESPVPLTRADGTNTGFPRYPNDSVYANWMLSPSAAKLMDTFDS
# methodSummary: Biochemical kinase assay (Reaction Biology, 33P ATP)
# runParameters: 10 μM ATP
measurementLabel: IC50 (nM)

(P) C[C@H]1CNC(=O)c2cnn3cc4c(nc23)N(Cc2cc(F)ccc2O1)[C@@H]1CCC[C@@H]1O4
(Q) C[C@H]1CNC(=O)c2cnn3cc4c(nc23)N(Cc2cc(F)cnc2O1)[C@@H]1CCC[C@@H]1O4
Task item: Input pair: P , Q . Output: entry with lower IC50. Answer by quoting the chosen item's label.
Reply: P

###

# experimentalSystem: BaF3 KIF5B-RET_G810R (Homo sapiens, UniProt P07949, G810R, cells depend on it)
# Construct: fused on or other part: P33176 (Kinesin-1 heavy chain)
# Sequence (P07949 whole entry G810R, the tested form may be a part): as the sequence (P07949 whole entry, change not shown, the tested form may be a part) above, with G810R counted along it
# methodSummary: Cell proliferation assay (CellTiter-Glo, 72 hours)
# Type: cell-based
# runParameters: anti-cell proliferation, read-out: BaF3 KIF5B-RET_G810R IC50
measurementLabel: GI50 (nM)

compound: C[C@@H]1COc2ncc(F)cc2CN2c3nc4c(cnn4cc3O[C@H]3CCCC[C@H]32)C(=O)N1 [Compound 13]
unitsOfMeasure: nM
GI50: 1120

compound: O=C1NC[C@H](F)COc2ncc(F)cc2CN2c3nc4c1cnn4cc3O[C@H]1CCC[C@H]12 [Compound 38]
unitsOfMeasure: nM
GI50: 0.3

compound: C[C@H]1CCOc2ncc(F)cc2CN2c3nc4c(cnn4cc3O[C@H]3CCC[C@H]32)C(=O)N1 [Compound 28]
unitsOfMeasure: nM
GI50: 72

compound: CC1(C)CCOc2ncc(F)cc2CN2c3nc4c(cnn4cc3O[C@H]3CCC[C@H]32)C(=O)N1 [Compound 34]
unitsOfMeasure: nM
GI50: 651

compound: O=C1N[C@@H]2CC[C@@H](C2)Oc2ncc(F)cc2CN2c3nc4c1cnn4cc3O[C@H]1CCC[C@H]12 [Compound 42]
unitsOfMeasure: nM
GI50: 17.4

(I) O=C1NC[C@H](O)COc2ncc(F)cc2CN2c3nc4c1cnn4cc3O[C@H]1CCC[C@H]12 [Compound 32]
(II) CC1(C)COc2ncc(F)cc2CN2c3nc4c(cnn4cc3O[C@H]3CCC[C@H]32)C(=O)N1 [Compound 21]
Task item: Parameter check: reported GI50 is higher for which label, I or II ? // respond with label for picked entry
Reply: I
(I: 501 nM, II: 82 nM)

(A) O=C1NCC(O)(O)COc2ncc(F)cc2CN2c3nc4c1cnn4cc3O[C@H]1CCC[C@H]12 [Compound 33]
(B) O=C1N[C@H]2CC[C@H](C2)Oc2ncc(F)cc2CN2c3nc4c1cnn4cc3O[C@H]1CCC[C@H]12 [Compound 41]
Task item: Just curious, which one has the larger GI50 reading, A or B ? The response must carry the label of the picked entry.
Reply: A

###

# experimentalSystem: RET (M918T) (Homo sapiens, UniProt P07949, M918T)
# Construct: purchased Reaction Biology Corporation (assay run at the CRO)
# methodSummary: Biochemical kinase assay (Reaction Biology, 33P ATP)
# runParameters: 10 μM ATP
measurementLabel: IC50 (nM)

(a) C[C@H]1CNC(=O)c2cnn3cc4c(nc23)N(Cc2cc(F)cnc2O1)[C@@H]1CCC[C@@H]1O4
(b) C[C@H]1CNC(=O)c2cnn3cc4c(nc23)N(Cc2cc(F)ccc2O1)[C@@H]1CCC[C@@H]1O4
Task item: Please choose the item with the lower IC50 value from this pair: a and b Pick one and reply with its label.
Reply: b

###

# experimentalSystem: RET (G691S) (Homo sapiens, UniProt P07949, G691S)
# Construct: purchased Reaction Biology Corporation (assay run at the CRO)
# Sequence (P07949 29-1114 G691S): as the sequence (P07949 29-1114 S904F) above, with G663S, F876S counted along it
# methodSummary: Biochemical kinase assay (Reaction Biology, 33P ATP)
# runParameters: 10 μM ATP
measurementLabel: IC50 (nM)

(1) C[C@H]1CNC(=O)c2cnn3cc4c(nc23)N(Cc2cc(F)ccc2O1)[C@@H]1CCC[C@@H]1O4
(2) C[C@H]1CNC(=O)c2cnn3cc4c(nc23)N(Cc2cc(F)cnc2O1)[C@@H]1CCC[C@@H]1O4
Task item: Returns: the label, 1 or 2 , whose recorded IC50 is the lower number. Write the label of whichever entry you select.
Reply: 2
(2: 0.941 nM, 1: 3.01 nM)
